All values here come from paper PMC5540273.

Test system: GRK3
Construct: gene ADRBK2
Details: concentration: 1 μM, replicates: in singlicate; n = 1;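 also: KINOMEscan kinase panel screen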
Measurement label: %Inh (%)
Note: unit % is implicit; provide only the numeric part.

Compound	%Inh, %
CN1c2ccc(-c3ccc(C(=O)NCCO)cc3)cc2-c2[nH]ncc2S1(=O)=O	0
Cl.c1ccc(Cn2ncc3cc(Nc4ncnc5ccccc45)ccc32)cc1 [GW273749]	0
Cl.Cl.c1ccc(-c2cc3ccncc3cc2OC2CCNCC2)cc1 [GSK1122999]	0
Fc1ccc(-c2ncn(CCCNCc3ccccc3)c2-c2ccncc2)cc1	0

The reported %Inh of the compound Fc1cccc(COc2ccc(Nc3ncnc4cc[nH]c34)cc2Cl)c1 was 3

The reported %Inh of the compound Cn1ccc2ncnc(Oc3ccc(NC(=O)Nc4cccnc4)c(Cl)c3)c21 was 0

The reported %Inh of the compound COc1ccc(NC(=O)c2ccc(-c3cc(-c4nnc(C)o4)ccc3C)cc2)cc1 [GW595885] was 99.2

The reported %Inh of the compound Cl.O=S(=O)(c1cccc(F)c1)c1ccc(Nc2ncnc3cc(Br)sc23)cc1Cl [GSK306886] was 0

The reported %Inh of the compound N#Cc1ccc(Oc2ccc(Nc3ncnc4cc[nH]c34)cc2Cl)cc1 was 7

----------
System: RPS6KA4(Kin.Dom.1-N-terminal)
Details: concentration: 1 μM, replicates: in singlicate; n = 1
%Inh values by entry
Note: unit % is implicit; provide only the numeric part.

CSc1nn2c(=O)cc(N3CCOCC3)nc2n1Cc1cccc(Cl)c1Cl 17
O=c1cc(N2CCOCC2)nc2n(Cc3cccc(Cl)c3)ccn12 6

The reported %Inh of the compound Clc1ccc(-c2cc(-c3c[nH]nc3-c3ccccn3)ccn2)cc1 was 2

The reported %Inh of the compound CNc1nccc(-c2c(-c3ccc(F)cc3)ncn2CCCN2CCOCC2)n1 was 27

The reported %Inh of the compound CC(C)(C)c1ccc(-n2cnc3c(N)ncnc32)cc1 was 0

The reported %Inh of the compound Nc1nc(-c2cccnc2)c(-c2ccnc3ccccc23)s1 was 0

The reported %Inh of the compound Cn1cc(-c2ccc3c(c2)CCN3C(=O)Cc2cccc(C(F)(F)F)c2)c2c(N)ncnc21 was 16

----------
Test system: CLK4
Settings: concentration: 1 μM, replicates: in singlicate; n = 1
%Inh values by entry

Molecule	Target of assay	Measurement label	Recorded value
Clc1cc(Nc2ncnc3cc[nH]c23)ccc1OCc1ccccn1	CLK4	%Inh	7%
NC(=O)c1sc(-n2cnc3ccccc32)cc1OCc1ccccc1F [GSK1024306]	CLK4	%Inh	42%

The reported %Inh of the molecule Fc1cccc(COc2ccc(Nc3ncnc4sc(-c5ccc[nH]5)cc34)cc2Cl)c1 [GW707818] was 100%

The reported %Inh of the molecule Nc1nccc2scc(-c3ccc4c(c3)CCN4C(=O)Cc3cc(F)ccc3F)c12 [GSK2587663] was 19%

The reported %Inh of the molecule CCCc1ccc(S(=O)(=O)NC2CCN(c3ccnc(Nc4ccc(OC)cc4)n3)C2)cc1 (stereo not drawn) [GSK1379737] was 6%

The reported %Inh of the molecule FC(F)(F)c1ccc(-c2nn3ncccc3c2-c2ccnc(Nc3cccc(C(F)(F)F)c3)n2)cc1 [GW828205] was 0%

The reported %Inh of the molecule O=C(Nc1ccccc1F)NC1CCN(c2ccnc(Nc3ccc(F)cc3)n2)C1 (stereo not drawn) [GSK1379722] was 17%

The reported %Inh of the molecule O=C(CCO)NCCn1ccc2ncnc(Nc3ccc(Oc4cccc(C(F)(F)F)c4)c(Cl)c3)c21 was 5%

The reported %Inh of the molecule CCc1nc(-c2cccc(C)c2)c(-c2ccnc(NC(=O)c3ccccc3)c2)s1 was 16%

The reported %Inh of the molecule COc1ccc(Nc2nccc(N3CCC(NC(=O)c4cccc(NC(C)=O)c4)C3)n2)cc1 (stereo not drawn) [GSK1379732] was 12%

----------
Tested on: AMPK-alpha1
Construct: gene PRKAA1
Conditions: concentration: 1 μM, replicates: in singlicate; n = 1
%Inh values by entry
Note: unit % is implicit; provide only the numeric part.

The reported %Inh of the compound CSc1nn2c(=O)cc(N3CCOCC3)nc2n1Cc1cccc(Cl)c1Cl was 11

----------
System: TRKC
Construct: gene NTRK3
Conditions: concentration: 1 μM, replicates: in singlicate; n = 1
%Inh values by entry
Note: unit % is implicit; provide only the numeric part.

Reference set, count: 8
Compound	Target of assay	%Inh / %
Fc1ccc(Nc2nccc(-c3c(-c4ccc(Cl)cc4)nn4ncccc34)n2)cc1F [GW829058]	TRKC	35
Cl.Fc1ccccc1COc1ccc(Nc2ncnc3ccc(-c4nnc(C(F)(F)F)o4)cc23)cc1Cl [GW424170]	TRKC	5
CS(=O)(=O)CCNCc1nc(-c2ccc3ncnc(Nc4ccc(OCc5cccc(F)c5)c(Cl)c4)c3c2)cs1.Cl [GW583340]	TRKC	0
CSc1nn2c(=O)cc(N3CCOCC3)nc2n1Cc1cccc(Cl)c1Cl [GSK2347225]	TRKC	0
C[C@@H]1CCN(C(=O)CO)C[C@@H]1N(C)c1ncnc2[nH]ccc12	TRKC	0
N#Cc1ccc(Oc2ccc(Nc3ncnc4cc[nH]c34)cc2Cl)cc1	TRKC	21
Cl.c1ccc(Cn2ncc3cc(Nc4ncnc5ccccc45)ccc32)cc1 [GW273749]	TRKC	0
Cc1ccc(NC(=O)c2cccc(C#N)c2)cc1-c1ccc(C(=O)Nc2ccncc2)cc1 [GSK1398463]	TRKC	7

Here is another compound to look at.
The reported %Inh of the compound O=C(Nc1ccccc1F)NC1CCN(c2ccnc(Nc3ccc(F)cc3)n2)C1 (stereo not drawn) [GSK1379722] was 22

----------
Test system: MAPKAPK2
Conditions: concentration: 1 μM, replicates: in singlicate; n = 1
Measurement label: %Inh

Reference set, count: 8
Molecule	Measurement label	Recorded value
CNc1nccc(-c2c(-c3ccc(F)cc3)ncn2C2CCN(C)CC2)n1 [SB-222903]	%Inh	0%
COc1ccc(NC(=O)Nc2ccc(C)c(-c3ccc(C(=O)Nc4ccncc4)cc3)c2)cc1 [GSK1398475]	%Inh	6%
CSc1ccc(NC2=C(c3ccccc3Cl)C(=O)NC2=O)cc1 [SB-342411]	%Inh	3%
O=C(c1ccc(-c2cc(-c3c[nH]nc3-c3ccccn3)ccn2)cc1)N1CCCC1 [GW792479]	%Inh	0%
Nc1nc(-c2cccnc2)c(-c2ccnc3ccccc23)s1 [GW684083]	%Inh	14%
Nc1nc(-c2ccccn2)c(-c2ccnc3ccccc23)s1 [GW548057]	%Inh	0%
Cc1ccc(C)c(NC(=O)NCCNc2ccnc(Nc3ccc(F)cc3)n2)c1 [GSK1379878]	%Inh	0%
Fc1cccc(COc2ccc(Nc3ncnc4nn5ccccc5c34)cc2Cl)c1 [GW689066]	%Inh	4%

The reported %Inh of the molecule O=C(CCO)NCCn1ccc2ncnc(Nc3ccc(Oc4cccc(C(F)(F)F)c4)c(Cl)c3)c21 was 0%

----------
System: PKMYT1
Details: concentration: 1 μM, replicates: in singlicate; n = 1
%Inh values by entry
Note: unit % is implicit; provide only the numeric part.

Molecule	Measurement label	Recorded value
Cn1ccc2ncnc(Nc3ccc(Oc4cccc(Cl)c4)c(Cl)c3)c21	%Inh	0

The reported %Inh of the molecule C[C@@H]1CCN(C(=O)CO)C[C@@H]1N(C)c1ncnc2[nH]ccc12 was 100

The reported %Inh of the molecule Nc1nc(-c2ccc3c(N)n[nH]c3c2)cc(N2CCC[C@@H](C(=O)Nc3ccccc3)C2)n1.O=C(O)C(F)(F)F.O=C(O)C(F)(F)F was 0

The reported %Inh of the molecule Cn1ccc2ncnc(Oc3ccc(NC(=O)Nc4cccnc4)c(Cl)c3)c21 was 0

The reported %Inh of the molecule Fc1cccc(COc2ccc(Nc3ncnc4nn5ccccc5c34)cc2Cl)c1 was 0

The reported %Inh of the molecule Nc1nc(-c2cccnc2)c(-c2ccnc3ccccc23)s1 was 0

The reported %Inh of the molecule CCc1nc(-c2cccc(N(C)S(=O)(=O)c3ccccc3)c2)c(-c2ccnc(Nc3ccc(N4CCN(C(C)=O)CC4)nc3)n2)s1 was 1

The reported %Inh of the molecule FC(F)(F)c1cc(Nc2nccc(-c3c(-c4ccc(Cl)cc4)nn4ncccc34)n2)ccc1Cl was 0

The reported %Inh of the molecule Cl.c1ccc(Cn2ccc3cc(Nc4ncnc5ccccc45)ccc32)cc1 was 0

The reported %Inh of the molecule Cc1ccc(NC(=O)c2cccc(C#N)c2)cc1-c1ccc(C(=O)Nc2ccncc2)cc1 was 0

The reported %Inh of the molecule COc1ccc(-c2oc3ncnc(N)c3c2-c2ccc(OC)cc2)cc1 was 0

The reported %Inh of the molecule FC(F)(F)c1ccc(-c2cc(-c3c[nH]nc3-c3ccccn3)ccn2)cc1 was 0

The reported %Inh of the molecule COc1ccc(Nc2nccc(N3CCC(NC(=O)c4cccc(NC(C)=O)c4)C3)n2)cc1 (centres unmarked) was 3

The reported %Inh of the molecule O=C(c1ccc(-c2cc(-c3c[nH]nc3-c3ccccn3)ccn2)cc1)N1CCCC1 was 0

The reported %Inh of the molecule Clc1cc(Nc2ncnc3cc[nH]c23)ccc1OCc1ccccn1 was 0

The reported %Inh of the molecule Cl.Cl.c1ccc(-c2cc3ccncc3cc2OC2CCNCC2)cc1 was 14

The reported %Inh of the molecule COC(=O)c1cccc(NC(=O)NCCNc2ccnc(Nc3ccc(F)cc3)n2)c1 was 10

The reported %Inh of the molecule Cl.Cn1ccc(-c2cccc(Nc3ccnc4cc(-c5nccs5)ccc34)c2)n1 was 0

The reported %Inh of the molecule Fc1cccc(COc2ccc(Nc3ncnc4cc[nH]c34)cc2Cl)c1 was 10

The reported %Inh of the molecule Clc1cccc(-c2nc(Nc3ccncc3)c3ccccc3n2)c1 was 0

The reported %Inh of the molecule Cc1cccc(-c2nc(Nc3ccc4[nH]nnc4c3)c3ccccc3n2)n1 was 0

The reported %Inh of the molecule Cl.O=S(=O)(c1cccc(F)c1)c1ccc(Nc2ncnc3cc(Br)sc23)cc1Cl was 26

The reported %Inh of the molecule Fc1ccc(-c2ncn(CCCNCc3ccccc3)c2-c2ccncc2)cc1 was 27

The reported %Inh of the molecule CC(=O)Nc1n[nH]c2ncc(-c3ccccc3)cc12 was 0

The reported %Inh of the molecule CN1CCC(n2cnc(-c3ccc(F)cc3)c2-c2ccnc(NC3CCNCC3)n2)CC1 was 0

The reported %Inh of the molecule CCC(CC)(CC)n1cnc2c(N)ncnc21 was 2
